Target: hpol κ^19–526 (Homo sapiens, UniProt Q9UBT6)
Sequence (Q9UBT6 19-526): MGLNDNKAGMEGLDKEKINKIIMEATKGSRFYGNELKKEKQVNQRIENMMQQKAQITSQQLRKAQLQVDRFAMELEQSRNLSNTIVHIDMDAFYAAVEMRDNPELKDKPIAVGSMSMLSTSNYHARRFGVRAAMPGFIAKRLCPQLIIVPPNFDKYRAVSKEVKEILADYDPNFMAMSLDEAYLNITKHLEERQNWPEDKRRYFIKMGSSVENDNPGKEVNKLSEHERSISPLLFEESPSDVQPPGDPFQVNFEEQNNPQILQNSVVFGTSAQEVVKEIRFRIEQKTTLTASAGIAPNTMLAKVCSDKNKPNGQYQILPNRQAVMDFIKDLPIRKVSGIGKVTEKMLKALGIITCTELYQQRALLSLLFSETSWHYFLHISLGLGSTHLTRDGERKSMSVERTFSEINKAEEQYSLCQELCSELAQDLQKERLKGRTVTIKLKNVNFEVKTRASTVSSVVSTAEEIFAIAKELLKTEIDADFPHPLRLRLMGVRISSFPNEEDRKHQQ
experimentalEndpoint: pIC50
Formally, pIC50 is defined as -log10 of the concentration c, with c in mol/L.

Input line: Return pIC50 measured with hpol κ^19–526 (Homo sapiens, UniProt Q9UBT6) given this compound: CC(C)c1ccc2c(c1)c(SC(C)(C)C)c(CC(C)(C)C(=O)O)n2Cc1ccc(Cl)cc1 [MK886]
Output line: 4.20

* * *

Molecular target: hpol ι^1–446 (Homo sapiens)
Sequence (Q9UNA4 1-446): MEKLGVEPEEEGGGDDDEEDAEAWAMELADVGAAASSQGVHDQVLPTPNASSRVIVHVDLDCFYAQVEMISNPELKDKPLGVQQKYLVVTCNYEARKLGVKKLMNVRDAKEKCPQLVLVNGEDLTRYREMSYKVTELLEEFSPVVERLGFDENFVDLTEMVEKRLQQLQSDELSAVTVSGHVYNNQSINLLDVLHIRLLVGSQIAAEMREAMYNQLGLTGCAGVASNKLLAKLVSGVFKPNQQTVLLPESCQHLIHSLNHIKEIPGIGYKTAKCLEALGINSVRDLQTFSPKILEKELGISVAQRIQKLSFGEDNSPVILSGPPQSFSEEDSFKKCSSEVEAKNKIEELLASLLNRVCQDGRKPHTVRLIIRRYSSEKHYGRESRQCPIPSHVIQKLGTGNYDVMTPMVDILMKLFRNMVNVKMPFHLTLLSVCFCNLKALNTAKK
experimentalEndpoint: pIC50
Formally, pIC50 is defined as -log10 of the concentration c, with c in mol/L.

Input line: Which pIC50 is listed for CC(C)c1ccc2c(c1)c(SC(C)(C)C)c(CC(C)(C)C(=O)O)n2Cc1ccc(Cl)cc1 [MK886] ?
Output line: 4.82
